Organism: Cavia porcellus
Test: The inhibitory concentration of compound on guinea pig bladder strips
Assay type: functional
readout.kind: pIC50
API: returns pIC50 as number; meaning -log10 of concentration in mol/L.

## Task Item N#Cc1cccc(C2C3=C(CCCC3=O)NC3=C2C(=O)CCC3)c1 has what recorded pIC50?
## Result 5.38

###

Target: Small conductance calcium-activated potassium channel protein 1 (Homo sapiens, UniProt Q92952)
Sequence (Q92952 whole entry): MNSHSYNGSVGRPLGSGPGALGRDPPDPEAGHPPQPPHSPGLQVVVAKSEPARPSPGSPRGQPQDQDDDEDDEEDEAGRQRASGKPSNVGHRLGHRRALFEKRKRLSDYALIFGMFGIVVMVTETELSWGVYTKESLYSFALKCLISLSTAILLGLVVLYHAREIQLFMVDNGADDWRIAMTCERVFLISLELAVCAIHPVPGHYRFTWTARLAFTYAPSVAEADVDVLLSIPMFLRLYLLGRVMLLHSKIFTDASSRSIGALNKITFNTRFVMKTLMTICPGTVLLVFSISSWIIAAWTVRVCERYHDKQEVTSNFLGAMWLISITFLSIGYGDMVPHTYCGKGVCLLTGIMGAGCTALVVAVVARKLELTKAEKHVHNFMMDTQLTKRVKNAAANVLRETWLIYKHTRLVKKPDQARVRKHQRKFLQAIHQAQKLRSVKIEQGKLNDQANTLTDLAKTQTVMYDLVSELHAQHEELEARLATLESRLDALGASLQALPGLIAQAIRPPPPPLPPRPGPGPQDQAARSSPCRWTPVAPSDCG
Experiment: Inhibition of hSK1 calcium activated potassium channel (SKCa channel); Range is 1-2
readout.kind: IC50 (nM)
// units = nM; emit number, no label

## Task Item c1ccc2c(c1)c1cc[n+]2CCCCC[n+]2ccc(c3ccccc32)NCCCCCN1 has what recorded IC50?
## Result 1
